Tested on: SF-295 CNS
Assay Procedure: NCI-60 one-dose screen, 48 h
Condition Details: 10 µM
Compounds without any hit were thinned out: in the full panel of roughly 83,000, 20% have a hit. Active and inactive are the calls of the source. The calls were made as follows: active = growth percent below 10; inactive = the rest.
# output must be one of active, inactive

Worked examples follow.
{"Compound": "C#CC[Se]C(=O)c1ccc2n[se]nc2c1", "Subject Of Test": "SF-295 CNS", "Answer Label": "inactive"}
{"Compound": "CC[C@]12C=CCN3CC[C@@]4(c5ccc(OC)cc5N(C)[C@H]4[C@@](O)(C(=O)OC)[C@@H]1OC(=O)CCC[P+](c1ccc(F)cc1)(c1ccc(F)cc1)c1ccc(F)cc1)[C@@H]32", "Subject Of Test": "SF-295 CNS", "Answer Label": "inactive"}
{"Compound": "COC(=O)C[C@](O)(CCCC(C)C)C(=O)O[C@H]1C(OC)=C[C@@]23CCCN2CCc2cc4c(cc2[C@@H]13)OCO4", "Subject Of Test": "SF-295 CNS", "Answer Label": "active"}
{"Compound": "CC12OOC(C)(OO1)C2CCC(=O)NCCCNc1ccnc2cc(Cl)ccc12 (configuration not stated)", "Subject Of Test": "SF-295 CNS", "Answer Label": "inactive"}
{"Compound": "N#C[Se]CC(=O)Nc1cccc(C(F)(F)F)c1", "Subject Of Test": "SF-295 CNS", "Answer Label": "active"}
{"Compound": "O=C(/C=C/c1cccc(Br)c1)c1nc2ccccc2n1Cc1ccc(Br)cc1", "Subject Of Test": "SF-295 CNS", "Answer Label": "active"}
{"Compound": "O=C(/C=C/c1ccc(Cl)cc1)c1nc2ccccc2n1Cc1ccc(Br)cc1", "Subject Of Test": "SF-295 CNS", "Answer Label": "inactive"}
{"Compound": "CC1=C2C(=C[C@@](C)(COP(=O)(Oc3ccccc3)Oc3ccccc3)[C@@H]2O)C(=O)[C@@](C)(O)C12CC2", "Subject Of Test": "SF-295 CNS", "Answer Label": "active"}
{"Compound": "CC(=O)Oc1ccccc1C(=O)[Se]C(=NC(C)C)NC(C)C", "Subject Of Test": "SF-295 CNS", "Answer Label": "active"}
{"Compound": "C[C@H]1[C@@H](CC(=O)N[C@@H](Cc2coc3ccccc23)B(O)O)O[C@@H]2OC3(C)CC[C@H]4[C@H](C)CC[C@@H]1[C@@]24OO3", "Subject Of Test": "SF-295 CNS", "Answer Label": "active"}

Enquiry: # lookup: test call for Cc1ccc2[nH]c(=S)n(-c3ccc(F)cc3)c(=O)c2c1
Return: inactive

Enquiry: # lookup: test call for O=C(/C=C/c1ccccc1)c1nc2ccccc2n1Cc1ccc(F)cc1
Return: active

Enquiry: # lookup: test call for CC(=C\C(=O)Oc1ccc2c3c1OC1C(O)CCC4(O)C(C2)N(CC2CCC2)CCC314)/C=C1\CCCc2ccccc21 (configuration not stated)
Return: inactive

Enquiry: # lookup: test call for CC[C@]12C=CCN3CC[C@@]4(c5ccc(OC)cc5N(C)[C@H]4[C@@](O)(C(=O)OC)[C@@H]1OC(=O)CCCC[P+](C1CCCCC1)(C1CCCCC1)C1CCCCC1)[C@@H]32
Return: active

Enquiry: # lookup: test call for C=CC[Se]C(=O)c1ccc(C(=O)[Se]CC=C)s1
Return: active

Enquiry: # lookup: test call for O=C(/C=C/c1ccc(Cl)cc1)c1nc2ccccc2n1Cc1ccc(F)cc1
Return: inactive

Enquiry: # lookup: test call for COc1cc2cc(C(=O)N3C[C@@H](CCl)c4c3cc(OC(=O)N3CCN(C)[C@@H]5CSSC[C@@H]53)c3ccccc43)[nH]c2c(OC)c1OC
Return: active

---

System: SF-295 CNS
Assay Procedure: NCI-60 one-dose screen, 48 h (100 = growth as untreated, 0 = no growth, -100 = all killed)
Condition Details: 10 µM
The panel holds about 83,000 compounds, 20% with a hit somewhere; the sample as a whole holds those more often.
Quick reference for growth among some compounds
// units = %; emit number, no label

Sample answers from the record:
{"Structure Smiles": "CC(C)N=C([Se])NC(=O)c1cccs1", "growth / %": -14}
{"Structure Smiles": "C#CCCCN(CCNc1ccnc2cc(Cl)ccc12)C(=O)CCC(=O)O[C@@H]1O[C@@H]2OC3(C)CC[C@H]4[C@H](C)CC[C@@H]([C@H]1C)[C@@]24OO3", "growth / %": 33.8}
{"Structure Smiles": "CCC[Se]C(=O)c1ccc(C(=O)[Se]CCC)s1", "growth / %": -85.7}

Switching to the query record.
Enquiry: Write down the reported growth of CC[C@]12C=CCN3CC[C@@]4(c5ccc(OC)cc5N(C)[C@H]4[C@@](O)(C(=O)OC)[C@@H]1OC(=O)CCC[P+](C1CCCCC1)(C1CCCCC1)C1CCCCC1)[C@@H]32 , test system: SF-295 CNS.
Return: -13.5

---

Test system: TK-10 renal
Assay Procedure: NCI-60 one-dose screen, 48 h (100 = growth as untreated, 0 = no growth, -100 = all killed)
Condition Details: 10 µM
About 83,000 compounds went through this panel and 20% of them were active in at least one assay; those are over-represented in the sample as a whole.
Quick reference for growth among some molecules
// units = %; emit number, no label

Sample answers from the record:
{"Molecule": "COc1ccc2cc([C@H](C)C(=O)[Se]CCC#N)ccc2c1", "Unit Text": "%", "Test Result": -90.4}
{"Molecule": "CC[C@]12C=CCN3CC[C@@]4(c5ccc(OC)cc5N(C)[C@H]4[C@@](O)(C(=O)OC)[C@@H]1OC(=O)CCC[P+](c1ccc(C)cc1)(c1ccc(C)cc1)c1ccc(C)cc1)[C@@H]32", "Unit Text": "%", "Test Result": -88.5}

Switching to the query record.
Enquiry: Write down the reported growth of CC12OOC(C)(OO1)C2CCC(=O)OCCNc1ccnc2cc(Cl)ccc12 (stereo not drawn) , test system: TK-10 renal.
Return: 66.3

---

Quick reference for growth among some compounds
Test system: NCI-H460 lung
Assay Procedure: NCI-60 one-dose screen, 48 h (100 = growth as untreated, 0 = no growth, -100 = all killed)
Condition Details: 10 µM
About 83,000 compounds went through this panel and 20% of them were active in at least one assay; those are over-represented in the sample as a whole.
// units = %; emit number, no label

{"Structure Smiles": "Cc1ccc2[nH]c(=S)n(-c3ccc(F)cc3)c(=O)c2c1", "Measure": "growth", "Test Result": 106}
{"Structure Smiles": "CC[C@]12C=CCN3CC[C@@]4(c5ccc(OC)cc5N(C)[C@H]4[C@@](O)(C(=O)OC)[C@@H]1OC(=O)CCCC[P+](c1ccc(C)cc1)(c1ccc(C)cc1)c1ccc(C)cc1)[C@@H]32", "Measure": "growth", "Test Result": -86.6}
{"Structure Smiles": "O=C(/C=C/c1ccc(Br)cc1)c1nc2ccccc2n1Cc1ccc(Br)cc1", "Measure": "growth", "Test Result": -14.4}
{"Structure Smiles": "COC(=O)C[C@](O)(CCC(C)C)C(=O)O[C@H]1C(OC)=C[C@@]23CCCN2CCc2cc4c(cc2[C@@H]13)OCO4", "Measure": "growth", "Test Result": -26.2}

Enquiry: Write down the reported growth of CC[C@]12C=CCN3CC[C@@]4(c5ccc(OC)cc5N(C)[C@H]4[C@@](O)(C(=O)OC)[C@@H]1OC(=O)CCC[P+](C1CCCCC1)(C1CCCCC1)C1CCCCC1)[C@@H]32 , test system: NCI-H460 lung.
Return: 4.64

---

Test system: MDA-MB-468 breast
Assay Procedure: NCI-60 one-dose screen, 48 h
Condition Details: 10 µM unless noted
This is part of a sample that, as a whole, favours compounds with a hit. Of some 83,000 tested, about 20% had one in any assay. The source made the active and inactive calls. How the source made its calls: active means growth percent below 10; inactive means the rest.
# output must be one of active, inactive

{"Molecule": "CC1CCCC(C[N+](C)(C)C)C1=O (configuration not stated)", "Answer Label": "inactive"}

Enquiry: # lookup: test call for O=C1C2C(C(=O)[N]1[Hg][c]1ccccc1)C1(Cl)C(Cl)=C(Cl)C2(Cl)C1(Cl)Cl (configuration not stated)
Return: active

Enquiry: # lookup: test call for CCOc1ccccc1C(=O)OCC(Cl)(Cl)Cl
Return: inactive

Enquiry: # lookup: test call for COc1ccc2c(c1)c(-c1nc(-c3c[nH]c4ncccc34)cs1)cn2CCCCN1CCCCC1
Return: active

---

Quick reference for growth among some molecules
Tested on: HL-60(TB) leukemia
Assay Procedure: NCI-60 one-dose screen, 48 h (100 = growth as untreated, 0 = no growth, -100 = all killed)
Condition Details: 10 µM unless noted
The panel holds about 83,000 compounds, 20% with a hit somewhere; the sample as a whole holds those more often.
// units = %; emit number, no label

Sample answers from the record:
{"Molecule": "Cc1cccc(-c2ccccc2Oc2ccc3nnc(Cl)n3n2)c1", "growth [%]": 108}
{"Molecule": "COc1cc(CNC(=O)C[C@H](C)CCC=C(C)C)ccc1OCc1cn(-c2ccc(Br)cc2)nn1", "growth [%]": 88.4}
{"Molecule": "COc1ccc(Nc2nnc(-c3c[nH]c4ccccc34)o2)cc1", "growth [%]": 29.8}
{"Molecule": "O=C(N1c2ccccc2Sc2ccccc21)n1ccc2cccnc21", "growth [%]": 25.2}

Enquiry: Data request, read-out growth, for COc1c(F)ccc(C(=O)Nc2ccc3nc(NC(=O)C4CCCN(S(=O)(=O)c5cccc(C(F)(F)F)c5)C4)sc3c2)c1F (configuration not stated)
Return: 72.1

Enquiry: Data request, read-out growth, for CN1CCN(c2ccc3c4c(cccc24)C(=O)N(c2cccc(-c4nn(-c5ccccc5)cc4-c4nc5ccccc5s4)c2)C3=O)CC1
Return: 102

Enquiry: Data request, read-out growth, for S=C(NCCc1ccccc1)Nc1ccc(OCc2nc3ccc(Cl)cc3[nH]2)cc1
Return: 11.6

Enquiry: Data request, read-out growth, for O=C(c1ccccc1)c1ccc2nc(-c3ccc(F)cc3)[nH]c2c1
Return: 36.1

Enquiry: Data request, read-out growth, for COc1ccc2c(c1)c(-c1cc3nc(-c4cn(C)c5ncc(Br)cc45)cc(N)n3n1)cn2C
Return: -59.7

Enquiry: Data request, read-out growth, for CC(=O)Nc1ccc(-c2cn(-c3cccc(C(=O)Nc4cc(C(F)(F)F)cc(C(F)(F)F)c4)c3)nn2)cn1
Return: -60.5

Enquiry: Data request, read-out growth, for COc1ccc2ccccc2c1/C=C1\SC(=Nc2ccc(O)cc2)NC1=O
Return: -29.9

Enquiry: Data request, read-out growth, for COc1ccc(C(=O)/C=C/c2ccc3c(c2)OCCO3)cc1S(N)(=O)=O
Return: 95.1

Enquiry: Data request, read-out growth, for COc1ccc2[nH]cc(-c3nnc(N)nc3-c3c[nH]c4ncc(Br)cc34)c2c1
Return: 103

Enquiry: Data request, read-out growth, for O=[N+]([O-])c1ccc(-c2nc(-c3ccccc3)c(-c3ccccc3)n2-c2ccc(S(=O)(=O)Nc3ncccn3)cc2)cc1
Return: 38.2
